Assay: self-splicing fitness, log relative to wild type (ln ratio); higher = more splicing; Tetrahymena group I intron in knt gene, E. coli kanamycin selection, DiMSum; sequences stand for … in CUCUCU…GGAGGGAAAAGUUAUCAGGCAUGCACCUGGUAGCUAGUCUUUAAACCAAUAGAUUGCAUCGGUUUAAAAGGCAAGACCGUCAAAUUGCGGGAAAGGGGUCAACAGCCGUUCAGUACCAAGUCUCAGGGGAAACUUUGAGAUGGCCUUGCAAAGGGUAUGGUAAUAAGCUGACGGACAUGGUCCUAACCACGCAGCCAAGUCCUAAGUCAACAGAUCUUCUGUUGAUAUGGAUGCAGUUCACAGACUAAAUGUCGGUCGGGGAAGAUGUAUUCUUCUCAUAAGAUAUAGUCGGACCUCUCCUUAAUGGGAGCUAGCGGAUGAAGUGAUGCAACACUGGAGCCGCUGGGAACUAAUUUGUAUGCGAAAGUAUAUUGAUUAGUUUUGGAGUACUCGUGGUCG;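 also: selection with 25 µg/mL kanamycin versus none on LB agar overnight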
Settings: 30 °C
value.type: self-splicing fitness (ln)
API note: the answer field is a bare number with no unit suffix.

Exam item: Consider the sequence shown here: ACAUAGCAAUAUUACGUGAA What is its recorded self-splicing fitness (ln)?
Marked response: -2.13

Exam item: Give the measured self-splicing fitness (ln) of ACUCAGCAAUAUUACGGUCA .
Marked response: -1.11

Exam item: Could you tell me which self-splicing fitness (ln) is on file for ACUAAGCAAUAUUACGGUGC ?
Marked response: -2.36

Exam item: Returns the measured self-splicing fitness (ln) for the input sequence. Input: CGGGAGCAAUAUUACGAGGG
Marked response: -2.28

Exam item: What does the data say about its self-splicing fitness (ln)? Entry: GAUCAGCAAUAUUACGAUAA
Marked response: 0.273

Exam item: Which measured self-splicing fitness (ln) value corresponds to GCCUAGCAAUAUUACGUAAC ?
Marked response: -0.911

Exam item: If you can, please state the reported self-splicing fitness (ln) value of ACGAAGCAAUAUUACGAAUA .
Marked response: -2.01

Exam item: Bench note: what self-splicing fitness (ln) did GCCAAGCAAUAUUACGCGUU show?
Marked response: -0.424
